System: Giant foxtail (Setaria fabergi)
Experiment: Example 24, Procedure II: Herbicide No. 1 + co-herbicides Nos. 4, 6, 7, 12 with Antidote Nos. 15 and 17-21
Assay type: in vivo
Conditions: Herb. No. 1 0.14 Kg/ha + Co-Herb. No. 6 0.14 Kg/ha + antidote 2.24 Kg/ha
test readout: % Inhibition GFT

# query: % Inhibition GFT of entry COC(=O)COC(c1ccccc1)c1ccccc1 [compound 20]
99%

# query: % Inhibition GFT of entry O=C(O)COC(c1ccccc1)c1ccccc1 [compound 18]
99%

# query: % Inhibition GFT of entry O=C(O)COC(c1ccccc1)c1ccccc1 [compound 19]
100%

Further cases:
# query: % Inhibition GFT of entry CCSC(=O)COC(c1ccccc1)c1ccccc1 [compound 21]
100%

# query: % Inhibition GFT of entry CC1(C)OC(c2ccco2)CN1C(=O)C(Cl)Cl (stereo not drawn) [compound 15]
100%

# query: % Inhibition GFT of entry CC1COc2ccccc2N1C(=O)C(Cl)Cl (stereo not drawn) [compound 17]
100%

###

Some compounds, each annotated with its measured % Injury VL.
Tested on: velvetleaf (Abutilon theophrasti)
Experiment: Example 6, Procedure II: Herbicide No. 1 + alachlor (No. 7) with antidotes
Assay type: in vivo
Conditions: Herbicide No.1 0.14 + No.7 4.48 kg/ha + antidote 2.24 kg/ha
Hi! Could you send only the number? It should be in %, unit omitted.

Checklist item: % Injury VL tested on velvetleaf (Abutilon theophrasti), entry O=C1OC(=O)c2cccc3cccc1c23 , value?
70

Checklist item: % Injury VL tested on velvetleaf (Abutilon theophrasti), entry C=CCN(CC=C)C(=O)C(Cl)Cl , value?
75

Checklist item: % Injury VL tested on velvetleaf (Abutilon theophrasti), entry CC1(C(Cl)Cl)OCCO1 , value?
75

Checklist item: % Injury VL tested on velvetleaf (Abutilon theophrasti), entry CC1(C)OC(c2ccco2)CN1C(=O)C(Cl)Cl (centres unmarked) , value?
80

Next:
Checklist item: % Injury VL tested on velvetleaf (Abutilon theophrasti), entry O=C(C(Cl)Cl)N1CCOC12CCCCC2 , value?
75

###

System: velvetleaf (Abutilon theophrasti)
Assay: Example 8, Procedure II: Herbicide No. 1 + butachlor (No. 9) with antidotes
Assay type: in vivo
Details: Herbicide No.1 0.56 + No.9 2.24 kg/ha + antidote 2.24 kg/ha
test readout: % Injury VL (%)
Hi! Could you send only the number? It should be in %, unit omitted.

Some solved cases for reference:
Checklist item: % Injury VL tested on velvetleaf (Abutilon theophrasti), entry O=C(C(Cl)Cl)N1CCOC12CCCCC2 , value?
75

Checklist item: % Injury VL tested on velvetleaf (Abutilon theophrasti), entry C=CCN(CC=C)C(=O)C(Cl)Cl , value?
85

Checklist item: % Injury VL tested on velvetleaf (Abutilon theophrasti), entry O=C1OC(=O)c2cccc3cccc1c23 , value?
90

Checklist item: % Injury VL tested on velvetleaf (Abutilon theophrasti), entry CC1(C(Cl)Cl)OCCO1 , value?
85

Further cases:
Checklist item: % Injury VL tested on velvetleaf (Abutilon theophrasti), entry CC1(C)OC(c2ccco2)CN1C(=O)C(Cl)Cl (centres unmarked) , value?
80

###

Test system: velvetleaf (Abutilon theophrasti)
Test: Example 18, Procedure II: Herbicide No. 1 + ERADICANE (EPTC + R-25788) with auxiliary antidotes
Assay type: in vivo
Conditions: Herbicide No.1 1.12 kg/ha + ERADICANE 8.96 kg/ha; antidote 2.24 kg/ha
Some compounds, each annotated with its measured % Injury VL.
Hi! Could you send only the number? It should be in %, unit omitted.

# query: % Injury VL of entry CC1(C)OC(c2ccco2)CN1C(=O)C(Cl)Cl (centres unmarked)
80

# query: % Injury VL of entry C=CCN(CC=C)C(=O)C(Cl)Cl
75

# query: % Injury VL of entry O=C1OC(=O)c2cccc3cccc1c23
70

# query: % Injury VL of entry CC1(C(Cl)Cl)OCCO1
75

# query: % Injury VL of entry O=C(C(Cl)Cl)N1CCOC12CCCCC2
70

###

Test system: corn
Assay: Example 19, Procedure II: Herbicide No. 1 + ERADICANE EXTRA with added antidotes
Format: in vivo
Details: Herbicide No.1 1.12 kg/ha + ERADICANE EXTRA 8.96 kg/ha; antidote 8.96 kg/ha
Method: Containers were filled and compacted with a fumigated silt loam top soil to a depth of about 1.3 cm from the top of the container. […] A measured amount of herbicide dispersed or dissolved in acetone was applied to a measured quantity of soil. To this same quantity of soil treated with herbicide, there was added a measured amount of antidote dispersed or dissolved in acetone. […]
test readout: % Injury Corn (%)
Hi! Could you send only the number? It should be in %, unit omitted.

Some solved cases for reference:
# query: % Injury Corn of entry O=C1OC(=O)c2cccc3cccc1c23
20

# query: % Injury Corn of entry CC1(C(Cl)Cl)OCCO1
15

Next:
# query: % Injury Corn of entry O=C(C(Cl)Cl)N1CCOC12CCCCC2
25
